- TARGET OR TEST SYSTEM: human CYP11B2 (Homo sapiens, UniProt P19099)
- Construct: expressed in transfected cells; host or cells: V79 Chinese hamster cells
- Sequence (P19099 25-503): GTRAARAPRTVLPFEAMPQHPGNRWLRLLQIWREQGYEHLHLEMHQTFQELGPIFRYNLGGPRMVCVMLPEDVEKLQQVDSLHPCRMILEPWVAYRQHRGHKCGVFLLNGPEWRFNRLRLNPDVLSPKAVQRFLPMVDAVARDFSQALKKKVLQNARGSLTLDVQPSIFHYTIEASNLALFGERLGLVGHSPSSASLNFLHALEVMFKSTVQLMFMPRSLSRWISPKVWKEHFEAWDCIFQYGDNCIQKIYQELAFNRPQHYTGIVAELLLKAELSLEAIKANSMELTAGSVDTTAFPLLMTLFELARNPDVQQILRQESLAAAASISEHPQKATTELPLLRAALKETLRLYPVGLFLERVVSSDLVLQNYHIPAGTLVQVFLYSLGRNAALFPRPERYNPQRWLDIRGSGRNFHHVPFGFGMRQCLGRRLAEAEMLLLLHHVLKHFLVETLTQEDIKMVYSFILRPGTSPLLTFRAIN
- TEST METHOD NOTES: Inhibitor potency for human CYP11B2 in V79 cells expressing the enzyme (HPLC steroid analysis)
- Assay type: cell-based
- ASSAY CONDITIONS: Ratio = IC50 CYP11B1/ IC50 CYP11B2 (selectivity)
QUANTITY: Ratio

I. O=[N+]([O-])c1ccc(Cn2cncc2-c2ccccc2)cc1
II. COC(=O)CCc1cncn1Cc1ccc(C#N)cc1
Input: When their Ratio values are compared, which is larger, I or II ? Respond with the label that goes with your answer.
Output: II
(II: 8.9, I: 5.9)
